Data origin: ChEMBL document CHEMBL4811229

# experiment: Selectivity index, ratio of EC50 for human HepG2 cells to EC50 for antiplasmodial activity against multidrug-resistant Plasmodium falciparum Dd2 infected in human A-positive erythrocytes
# Assay type: toxicity, cell-based
# conditionDetails: read-out: Ratio EC50
Where a SMILES comes first, the peptide text is derived from it. [ ]: non-standard residue; d: D form. The star is where a group is joined. X1 = CC(C)C[C@@H](C[N+]1=C2CCCN2CCC1)N*; Pip = O=C(O)[C@@H]1CCCCN1; Iva = CC[C@](C)(N)C(=O)O; Aib = CC(C)(N)C(=O)O; βAla = NCCC(=O)O
Listing of recorded selectivity ratio by entry.

molecule: CC[C@H](C)[C@H](NC(=O)[C@H](CO)NC(=O)[C@@H]1CCCN1C(=O)C(C)(C)NC(=O)[C@H](CC(C)C)NC(=O)[C@H](CC(N)=O)NC(=O)C(C)(C)NC(C)=O)C(=O)NC(C)(C)C(=O)N1CCC[C@H]1C(=O)NC(C)(C)C(=O)N[C@@H](CC(C)C)C(=O)N[C@](C)(CC)C(=O)N1CCC[C@H]1C(=O)N[C@H](CO)CC(C)C
selectivity ratio: > 48

molecule: CC[C@@](C)(NC(C)=O)C(=O)N[C@@H](CC(N)=O)C(=O)N[C@@H](CC(C)C)C(=O)NC(C)(C)C(=O)N1CCC[C@H]1C(=O)N[C@@H](CO)C(=O)N[C@H](C(=O)NC(C)(C)C(=O)N1CCC[C@H]1C(=O)NC(C)(C)C(=O)N[C@@H](CC(C)C)C(=O)NC(C)(C)C(=O)N1CCC[C@H]1C(=O)N[C@H](CO)CC(C)C)C(C)C (HELM PEPTIDE1{[ac].[CC[C@@](C)(N[*:1])C(=O)[*:2]].N.L.[Aib].P.S.V.[Aib].P.[Aib].L.[Aib].P.[CC(C)C[C@@H](CO)N[*:1]]}$$$$V2.0)
selectivity ratio: > 40

molecule: CC[C@H](C)[C@H](NC(=O)[C@H](C)NC(=O)[C@@H]1CCCN1C(=O)C(C)(C)NC(=O)[C@H](CC(C)C)NC(=O)[C@H](CCC(N)=O)NC(=O)[C@@](C)(CC)NC(C)=O)C(=O)NC(C)(C)C(=O)N1CCC[C@H]1C(=O)NC(C)(C)C(=O)N[C@@H](CC(C)C)C(=O)NC(C)(C)C(=O)N1CCC[C@H]1C(=O)N[C@H](CO)CC(C)C (HELM PEPTIDE1{[ac].[CC[C@@](C)(N[*:1])C(=O)[*:2]].Q.L.[Aib].P.A.I.[Aib].P.[Aib].L.[Aib].P.[CC(C)C[C@@H](CO)N[*:1]]}$$$$V2.0)
selectivity ratio: > 78

molecule: CC[C@](C)(NC(=O)[C@H](CC(C)C)NC(=O)[C@H](C)NC(=O)C(C)(C)NC(=O)[C@@H]1CCCCN1C(=O)C(C)(C)NC(=O)C(C)(C)NC(=O)CNC(=O)CCNC(=O)[C@H](CC(C)C)NC(=O)C(C)(C)NC(=O)[C@](C)(CC)NC(=O)[C@@H]1CCCCN1C(=O)C(C)(C)NC(=O)[C@@H]1CCCCN1C(C)=O)C(=O)N[C@@H](CC(C)C)C[N+]1=C2CCCN2CCC1 [EFRAPEPTIN G] (Ac-[Pip][Aib][Pip][Iva][Aib]L[βAla]G[Aib][Aib][Pip][Aib]AL[Iva]-X1)
selectivity ratio: > 54

molecule: CC[C@H](C)[C@H](NC(=O)[C@H](C)NC(=O)[C@@H]1CCCN1C(=O)C(C)(C)NC(=O)[C@H](CC(C)C)NC(=O)[C@H](CCC(N)=O)NC(=O)C(C)(C)NC(C)=O)C(=O)NC(C)(C)C(=O)N1CCC[C@H]1C(=O)NC(C)(C)C(=O)N[C@@H](CC(C)C)C(=O)N[C@](C)(CC)C(=O)N1CCC[C@H]1C(=O)N[C@H](CO)CC(C)C
selectivity ratio: > 40

###

Listing of recorded selectivity ratio by entry.
# experiment: Selectivity index, ratio of EC50 for human HepG2 cells to EC50 for antiplasmodial activity against multidrug-resistant Plasmodium falciparum Dd2 infected in human A-positive erythrocytes
# Assay type: toxicity, cell-based
# conditionDetails: read-out: Ratio EC50
Where a SMILES comes first, the peptide text is derived from it. [ ]: non-standard residue; d: D form. Leu(ol) = CC(C)C[C@H](N)CO; dIva = CC[C@@](C)(N)C(=O)O; Aib = CC(C)(N)C(=O)O
attributeMeasured: selectivity ratio

compound: CCCCCCCC(=O)NC(C)(C)C(=O)NCC(=O)N[C@@H](CC(C)C)C(=O)NC(C)(C)C(=O)NCC(=O)NCC(=O)N[C@H](C(=O)NC(C)(C)C(=O)NCC(=O)N[C@H](C(=O)N[C@H](CO)CC(C)C)[C@@H](C)CC)C(C)C
result: > 8

compound: CC[C@H](C)[C@H](NC(=O)[C@H](CO)NC(=O)[C@@H]1CCCN1C(=O)C(C)(C)NC(=O)[C@H](CC(C)C)NC(=O)[C@H](CC(N)=O)NC(=O)[C@@](C)(CC)NC(C)=O)C(=O)NC(C)(C)C(=O)N1CCC[C@H]1C(=O)NC(C)(C)C(=O)N[C@@H](CC(C)C)C(=O)NC(C)(C)C(=O)N1CCC[C@H]1C(=O)N[C@H](CO)CC(C)C (HELM PEPTIDE1{[ac].[CC[C@@](C)(N[*:1])C(=O)[*:2]].N.L.[Aib].P.S.I.[Aib].P.[Aib].L.[Aib].P.[CC(C)C[C@@H](CO)N[*:1]]}$$$$V2.0)
result: > 43

compound: CC[C@@](C)(NC(=O)[C@@H]1CCCN1C(=O)C(C)(C)NC(=O)[C@@H](NC(=O)[C@H](CO)NC(=O)[C@@H]1CCCN1C(=O)C(C)(C)NC(=O)[C@H](CC(C)C)NC(=O)[C@H](CC(N)=O)NC(=O)C(C)(C)NC(C)=O)C(C)C)C(=O)N[C@@H](CC(C)C)C(=O)NC(C)(C)C(=O)N1CCC[C@H]1C(=O)N[C@H](CO)CC(C)C (HELM PEPTIDE1{[ac].[Aib].N.L.[Aib].P.S.V.[Aib].P.[CC[C@@](C)(N[*:1])C(=O)[*:2]].L.[Aib].P.[CC(C)C[C@@H](CO)N[*:1]]}$$$$V2.0)
result: > 45

compound: CC[C@H](C)[C@H](NC(=O)[C@H](CO)NC(=O)[C@@H]1CCCN1C(=O)C(C)(C)NC(=O)[C@H](CC(C)C)NC(=O)[C@H](CC(N)=O)NC(=O)[C@@](C)(CC)NC(C)=O)C(=O)NC(C)(C)C(=O)N1CCC[C@H]1C(=O)N[C@](C)(CC)C(=O)N[C@@H](CC(C)C)C(=O)NC(C)(C)C(=O)N1CCC[C@H]1C(=O)N[C@H](CO)CC(C)C (Ac-[dIva]NL[Aib]PSI[Aib]P[dIva]L[Aib]P[Leu(ol)])
result: > 48

compound: CCCCCCCC(=O)NC(C)(C)C(=O)NCC(=O)N[C@@H](CC(C)C)C(=O)NC(C)(C)C(=O)NCC(=O)NCC(=O)N[C@@H](CC(C)C)C(=O)NC(C)(C)C(=O)NCC(=O)N[C@@H](CC(C)C)C(=O)N[C@H](CO)CC(C)C (HELM PEPTIDE1{[CCCCCCCC(=O)[*:2]].[Aib].G.L.[Aib].G.G.L.[Aib].G.L.[CC(C)C[C@@H](CO)N[*:1]]}$$$$V2.0)
result: > 11

compound: CCCCCCCC(=O)NC(C)(C)C(=O)NCC(=O)N[C@@H](CC(C)C)C(=O)NC(C)(C)C(=O)NCC(=O)NCC(=O)N[C@H](C(=O)NC(C)(C)C(=O)NCC(=O)N[C@@H](CC(C)C)C(=O)N[C@H](CO)CC(C)C)C(C)C (HELM PEPTIDE1{[CCCCCCCC(=O)[*:2]].[Aib].G.L.[Aib].G.G.V.[Aib].G.L.[CC(C)C[C@@H](CO)N[*:1]]}$$$$V2.0)
result: > 28

compound: CC[C@H](C)[C@H](NC(=O)[C@H](C)NC(=O)[C@@H]1CCCN1C(=O)C(C)(C)NC(=O)[C@H](CC(C)C)NC(=O)[C@H](CC(N)=O)NC(=O)C(C)(C)NC(C)=O)C(=O)NC(C)(C)C(=O)N1CCC[C@H]1C(=O)NC(C)(C)C(=O)N[C@@H](CC(C)C)C(=O)NC(C)(C)C(=O)N1CCC[C@H]1C(=O)N[C@H](CO)CC(C)C (HELM PEPTIDE1{[ac].[Aib].N.L.[Aib].P.A.I.[Aib].P.[Aib].L.[Aib].P.[CC(C)C[C@@H](CO)N[*:1]]}$$$$V2.0)
result: > 60

compound: CC[C@H](C)[C@H](NC(=O)[C@H](C)NC(=O)[C@@H]1CCCN1C(=O)C(C)(C)NC(=O)[C@H](CC(C)C)NC(=O)[C@H](CC(N)=O)NC(=O)[C@@](C)(CC)NC(C)=O)C(=O)NC(C)(C)C(=O)N1CCC[C@H]1C(=O)N[C@](C)(CC)C(=O)N[C@@H](CC(C)C)C(=O)NC(C)(C)C(=O)N1CCC[C@H]1C(=O)N[C@H](CO)CC(C)C (Ac-[dIva]NL[Aib]PAI[Aib]P[dIva]L[Aib]P[Leu(ol)])
result: > 40
